Test system: HEK293
procedure.summary: Cytotoxic Profiling of Annotated Libraries Using Quantitative High-Throughput Screening (AID 1296008); also: nearly all actives have a fitted effect of over 60% in size; also: potency is read from the fitted curve at half-maximal effect
condition.summary: Five cell lines viability, CellTiter-Glo ATP luminescence, 48-72 h
Inconclusive results are not listed. Activity calls are given as the source filed them. Calls follow the shape of the dose curve; as a rule, active = well fitted inhibition curve with a large enough effect; inconclusive = small, poorly fitted or top-dose-only effect; inactive = flat fitted curve, though single readings scatter.
# Potency values compiled below

Cc1csc2c(N[C@@H](C)CN3CCN(S(=O)(=O)c4ccc(Cl)c(Cl)c4)CC3)ncnc12 : 0.366 µM (active)
Cc1cc(N2CCN(C(=O)Oc3ccc(-c4ccccc4)cn3)CC2)c2ccccc2n1 : 8.2 µM (active)

Record request: Potency value, item O=C(Nc1ccc2[nH]nc(-c3ccncc3)c2c1)[C@@H]1CCN(CC(=O)N2CCN(c3ccc(-c4ncccn4)cc3)CC2)C1 10.3 µM (active)

Same thing, different compound: CO[C@H]1C[C@@H]2CC[C@@H](C)[C@@](O)(O2)C(=O)C(=O)N2CCCC[C@H]2C(=O)O[C@H]([C@@H](C)C[C@@H]2CC[C@@H](O)[C@H](OC)C2)CC(=O)[C@H](C)/C=C(\C)[C@@H](O)[C@@H](OC)C(=O)[C@H](C)C[C@H](C)/C=C/C=C/C=C/1C 0.0073 µM (active)

----------
System: CAOV3
procedure.summary: Primary qHTS to identify gynecologic anti-cancer compounds using libraries of approved drugs and bioactive compounds (AID 1345084); also: nearly all actives have a fitted effect of over 55% in size
condition.summary: Gynecologic cancer cell panel viability, ATPlite luminescence, 48 h; series mostly up to 57.5 µM
Records with an inconclusive call do not appear. Calls of active or inactive are those of the source. Calls come from the whole dose curve; as a rule, active = well fitted cell-killing curve with a large enough effect; inconclusive = small, poorly fitted or top-dose-only effect, or effect the other way; inactive = flat fitted curve, though single readings scatter.
Answer with one of the outcomes active, inactive

COc1cccc(OCCCN)c1-c1cc(Nc2cnc(C#N)cn2)n[nH]1 : active
CCCn1ncc(CN2CCCC(C(=O)c3cccc(OC(C)C)c3)C2)c1C (stereo not given) : inactive
CC1OC(=O)C[C@@H]2C(C(=O)O)=CO[C@@H](O[C@H]3O[C@H](CO)[C@@H](O)[C@H](O)[C@H]3O)[C@H]12 (stereo not given in full) : inactive
CN(C)C(=O)NC1(c2ccccc2)CCN(CCC[C@]2(c3ccc(Cl)c(Cl)c3)CCCN(C(=O)c3ccccc3)C2)CC1 : active

Consider the record given below.
How was CN(C)c1ccnc2sc3c(=O)n(N4CCCCCC4)cnc3c12 classified in this test? inactive

----------
# key: entry, value: activity change, negative = cytotoxicity
System: Hek293T
procedure.summary: Primary qHTS to identify gynecologic anti-cancer compounds using libraries of approved drugs and bioactive compounds (AID 1345084); also: nearly all actives have a fitted effect of over 55% in size; as to activity change, negative = cytotoxicity: % is scaled to controls: 0 for no effect and ±100 for the full control effect
condition.summary: Gynecologic cancer cell panel viability, ATPlite luminescence, 48 h, control line for the selectivity index; series mostly up to 57.5 µM
Results filed as inconclusive are left out. Calls of active or inactive are those of the source. Calls follow the shape of the dose curve; as a rule, active = well fitted cell-killing curve with a large enough effect; inconclusive = small, poorly fitted or top-dose-only effect, or effect the other way; inactive = flat fitted curve, though single readings scatter.

Guide cases for activity change, negative = cytotoxicity, answers given:
CC(=O)N[C@H]1[C@H](O[C@H]2CC[C@@]3(C)C(CC[C@]4(C)C3CC=C3C5CC(C)(C)CC[C@]5(C(=O)O)C(O)C[C@]34C)C2(C)C)O[C@H](CO[C@@H]2O[C@H](C)[C@H](O)[C@H](O)[C@H]2O[C@@H]2OC[C@@H](O)[C@H](O)[C@H]2O)[C@@H](O)[C@@H]1O (some centres undefined) : -2.18% [at 11.6 µM] (inactive)
CC(=O)OC1CC(C)(C(=O)O)CC2C3=CC(=O)C4C5(C)CCC(OC6OC(C(=O)O)C(O)C(O)C6OC6OC(C(=O)O)C(O)C(O)C6O)C(C)(C)C5CCC4(C)C3(C)CCC12C (centres undefined) : 7.86% [at 11.6 µM] (inactive)
CC(=O)O[C@@H]1[C@@H](O)[C@H](O[C@@H]2[C@@H](O)[C@@H](O)[C@H](O[C@H]3[C@H](O[C@H]4[C@H](O[C@H]5CC[C@@]6(C)C(CC[C@]7(C)C6CC=C6[C@@H]8CC(C)(C)CC[C@]8(C(=O)O)CC[C@]67C)[C@]5(C)CO)O[C@H](CO)[C@@H](O)[C@@H]4O)OC[C@@H](O)[C@@H]3O)O[C@H]2C)OC[C@H]1O (some centres undefined) : 1.05% [at 11.6 µM] (inactive)

// lookup activity change, negative = cytotoxicity for CC(CCC1(O)OC2CC3C4CC=C5C[C@@H](O[C@@H]6O[C@H](CO)[C@@H](O[C@@H]7O[C@@H](C)[C@H](O)[C@@H](O)[C@H]7O)[C@H](O)[C@H]6O[C@@H]6O[C@@H](C)[C@H](O)[C@@H](O)[C@H]6O)CC[C@]5(C)C4CC[C@]3(C)[C@@]2(O)[C@@H]1C)CO[C@@H]1O[C@H](CO)[C@@H](O)[C@H](O)[C@H]1O (some centres undefined) 7.85% [at 11.6 µM] (inactive)

----------
tested.on: Glutathione peroxidase 1 (Homo sapiens) (UniProt P07203)
Sequence (P07203 whole entry, looked up): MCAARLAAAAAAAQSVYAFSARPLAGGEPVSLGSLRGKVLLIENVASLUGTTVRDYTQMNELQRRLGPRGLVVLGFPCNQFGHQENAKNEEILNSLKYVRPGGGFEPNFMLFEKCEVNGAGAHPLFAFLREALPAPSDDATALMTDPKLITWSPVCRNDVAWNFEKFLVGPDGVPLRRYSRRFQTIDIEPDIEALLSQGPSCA
procedure.summary: Primary qHTS Assay for Inhibitors of Recombinant Selenoprotein Glutathione Peroxidase 1 (GPX1) (AID 1845191); also: % is scaled to controls: 0 for no effect and ±100 for the full control effect; nearly all actives have a fitted effect of over 65% in size
condition.summary: recombinant GPX1, GR-coupled NADPH fluorescence, 15 min; series mostly up to 48.8 µM
Results filed as inconclusive are left out. Activity calls are given as the source filed them. Calls come from the whole dose curve; as a rule, active = well fitted inhibition curve with a large enough effect; inconclusive = small, poorly fitted or top-dose-only effect; inactive = flat fitted curve, though single readings scatter.
measured.parameter: activity, negative = inhibition

C/C=C(/C)C(=O)OC1CC(C)(C)CC2C3=CCC4C5(C)CCC(O[C@@H]6O[C@H](C(=O)O)[C@@H](O)[C@H](O)[C@H]6O[C@@H]6O[C@H](CO)[C@H](O)[C@H](O[C@@H]7OC[C@H](O)[C@H](O)[C@H]7O[C@@H]7O[C@H](CO)[C@@H](O)[C@H](O)[C@H]7O)[C@H]6O)C(C)(C)C5CCC4(C)C3(C)C(O)C(O)C12CO (stereo partly drawn) : -3.11% [at 9.52 µM] (inactive)
C=CC(C)(O)CC/C=C(\C)C(=O)OC1C(O)C(CO)OC(OC(=O)C23CCC(C)(C)CC2C2=CCC4C5(C)CCC(OC6OC(COC7OCC(OC(C)=O)C(O)C7OC7OC(COC(C)=O)C(O)C(O)C7OC(C)=O)C(O)C(O)C6OC6OCC(O)C(O)C6O)C(C)(C)C5CCC4(C)C2(C)C(O)C3O)C1OC1OCC(OC2OCC(O)C(OC3OCC(O)C(O)C3O)C2O)C(O)C1O (stereo not drawn) : -15.5% [at 9.52 µM] (inactive)

# input for lookup
What value of activity, negative = inhibition has been recorded for this entry: CC(=O)O[C@@H]1C[C@]2(C)[C@@]3(CCC4[C@@]5(C)CC[C@H](O[C@@H]6O[C@H](C(=O)O)[C@@H](O)[C@H](OC7OC(CO)C(O)C(O)[C@H]7O[C@@H]7O[C@@H](C)[C@H](O)[C@@H](O)[C@H]7O[C@@H]7OC[C@](O)(CO)[C@H]7O)[C@H]6OC6OC(CO)C(O)C(O)C6O)C(C)(C)C5CC[C@]42C)OC[C@@]12CCC(C)(C)CC23 (stereo partly drawn) -11.2% [at 9.52 µM] (inactive)

----------
Below, each of the compounds is paired with its reported max response value.
System: KB-3-1
procedure.summary: Cytotoxic Profiling of Annotated Libraries Using Quantitative High-Throughput Screening (AID 1296008); also: nearly all actives have a fitted effect of over 60% in size; as to max response: % is scaled to controls: 0 for no effect and ±100 for the full control effect
condition.summary: Five cell lines viability, CellTiter-Glo ATP luminescence, 48-72 h; active compounds read low
Inconclusive results are not listed.
Numbers only here, please. The scale is %.

Nc1nccc(-c2c(-c3ccc(F)cc3)ncn2C2CCCCC2)n1 : -18.1
CC1(C)C2CC[C@]3(C)[C@H](C(=O)C=C4[C@@H]5C[C@@](C)(C(=O)O)CC[C@]5(C)CC[C@]43C)[C@@]2(C)CC[C@@H]1O[C@H]1O[C@H](C(=O)O)[C@@H](O)[C@H](O)[C@H]1O[C@@H]1O[C@H](C(=O)O)[C@@H](O)[C@H](O)[C@H]1O (some centres undefined) : -22.6
C/C(=C\Cc1c(O)c(Cl)c(C)c(C=O)c1O)CC/C=C(\C)[C@H]1CC(=O)C(C)(C)O1 : -27.9

Moving on to the next compound.
Can you look up max response on KB-3-1 for O=c1cc(OCc2ccc(F)cc2)ccn1-c1ccc(OCCN2CCCC2)cc1 ? -29.6

----------
tested.on: Cytochrome P450 2D6 (Homo sapiens) (UniProt P10635)
Sequence (P10635 whole entry, looked up): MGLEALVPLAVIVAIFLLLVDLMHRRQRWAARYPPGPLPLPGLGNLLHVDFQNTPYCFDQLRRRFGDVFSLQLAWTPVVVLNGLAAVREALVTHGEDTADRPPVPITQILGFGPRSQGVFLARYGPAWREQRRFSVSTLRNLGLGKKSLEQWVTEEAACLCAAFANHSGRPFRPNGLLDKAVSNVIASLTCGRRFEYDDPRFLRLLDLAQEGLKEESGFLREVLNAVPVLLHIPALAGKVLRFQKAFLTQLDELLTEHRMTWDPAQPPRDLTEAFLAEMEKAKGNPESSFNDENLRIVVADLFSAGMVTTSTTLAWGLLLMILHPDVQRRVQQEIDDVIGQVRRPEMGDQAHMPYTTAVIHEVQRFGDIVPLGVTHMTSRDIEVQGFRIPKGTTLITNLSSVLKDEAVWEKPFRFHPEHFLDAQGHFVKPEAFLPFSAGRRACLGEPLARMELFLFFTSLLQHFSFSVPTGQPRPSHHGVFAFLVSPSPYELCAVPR
procedure.summary: Cytochrome P450 family 2 subfamily D member 6 (CYP2D6) small molecule antagonists: luciferase biochemical (cell-free) qHTS assay (AID 1645840); also: nearly all actives have a fitted effect of over 55% in size
condition.summary: P450-Glo CYP2D6 enzyme, luciferin luminescence, 1 h; series mostly up to 57.4 µM
Inconclusive results are not listed. Activity calls are given as the source filed them. The call rests on the fitted dose curve; in most records, active means well fitted inhibition curve with a large enough effect in the repeat runs; inconclusive means weak or mixed curves; inactive means flat fitted curve, though single readings scatter.
Response enum: active, inactive

These recorded examples may help you get a feel for the data.
CC(C)S(=O)(=O)c1ccc2nccc(Nc3ccc4scnc4c3)c2c1 : active
O=C1C(c2[nH]c3ccc(S(=O)(=O)O)cc3c2O)=Nc2ccc(S(=O)(=O)O)cc21 : inactive
O=C(NCCN1CCN(c2cccc3c2OCCO3)CC1)c1ccc(F)cc1 : active
Cc1cc(C)cc(-c2cnc3cc(Cl)c(-c4cccc(O)c4)cc3c2OCCCN)c1 : active
Fc1ccc(-c2nc(-c3c(F)cccc3F)[nH]c2-c2ccncc2)cc1 : active

Answer briefly: the call reported for FC(F)(F)c1ccccc1-c1cc(C(F)(F)F)c2nc(C3=NOC4(CCCCC4)C3)[nH]c2c1 in this assay. inactive

Do the same for O=C(Nc1ccc(-c2ccnc(Nc3ccc(N4CCOCC4)cc3)n2)cc1)C1CCCN1 (stereo unspecified) please inactive

Next compound up: O=C(Nc1ccc(Cl)cc1)c1ccccc1NCc1ccncc1 active

// same read-out, input: CCN1C(C)(C)CC(Oc2ccc(C(=O)Nc3ccc(NC(=O)Nc4cc(C(C)(C)C)on4)cc3)nc2)CC1(C)C active

And the next one, Nc1ncnc2c1c(-c1ccc(Oc3ccccc3)cc1)nn2[C@@H]1CCCNC1 ? active

One more compound: COc1ccc2nc(-c3cc(OC)c(OC)c(OC)c3)cc(C(=O)NCC(=O)Nc3ccc(C(C)=O)cc3)c2c1 inactive
